Data provenance: patent US11814444B2

Give measured pIC50 for each item. Keep answers brief.
- experimental system: human PCSK9 / human LDLR EGFa domain interaction (Homo sapiens)
- Sequence (Q8NBP7 153-692): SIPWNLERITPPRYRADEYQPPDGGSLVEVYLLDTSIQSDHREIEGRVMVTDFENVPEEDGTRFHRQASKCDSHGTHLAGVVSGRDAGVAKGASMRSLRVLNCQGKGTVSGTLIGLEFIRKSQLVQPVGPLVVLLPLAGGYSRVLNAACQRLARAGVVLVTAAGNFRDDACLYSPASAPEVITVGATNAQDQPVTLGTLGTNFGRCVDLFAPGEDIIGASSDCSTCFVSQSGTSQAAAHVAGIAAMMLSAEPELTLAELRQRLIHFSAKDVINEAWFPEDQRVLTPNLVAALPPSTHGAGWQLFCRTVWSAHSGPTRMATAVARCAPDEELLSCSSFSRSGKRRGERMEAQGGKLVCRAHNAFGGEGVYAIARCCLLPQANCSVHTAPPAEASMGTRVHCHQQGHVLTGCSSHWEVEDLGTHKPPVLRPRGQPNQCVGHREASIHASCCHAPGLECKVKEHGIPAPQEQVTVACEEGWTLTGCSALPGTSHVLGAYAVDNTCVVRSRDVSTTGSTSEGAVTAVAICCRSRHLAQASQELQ
- Sequence (Q8NBP7 31-152 partner limits assumed): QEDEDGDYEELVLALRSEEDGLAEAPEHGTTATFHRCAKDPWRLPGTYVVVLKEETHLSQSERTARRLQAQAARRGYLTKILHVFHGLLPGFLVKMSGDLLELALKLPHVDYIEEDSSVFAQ
- experimental details: TR-FRET assay of inhibition of the PCSK9-LDLR protein-protein interaction
- condition label: 20 nM avitag-biotinylated human PCSK9, 20 nM his-tagged human LDLR EGFa domain, 2 hours, room temperature
pIC50: −log10 of the molar value. Numbered stars: 1 amine (or outer) side, 2 acyl side, 3 side chain; on linkers, the order of the positions; unused ones are H or OH. Bridge positions count the residues as written; N and C are the ends. Square brackets hold non-standard residues; d marks the D form. Peptide text beside a SMILES is read from it. * marks the point of attachment. X6 = CC(=O)Oc1ccc2c(c1)CN([*:1])[C@H](C(=O)[*:2])C2; Trp(7-aza) = N[C@@H](Cc1c[nH]c2ncccc12)C(=O)O; mXylylene = c1cc(C[*:1])cc(C[*:2])c1; Aad = N[C@@H](CCCC(=O)O)C(=O)O; Tle = CC(C)(C)[C@H](N)C(=O)O; αMeV = CC(C)[C@](C)(N)C(=O)O; Nva = CCC[C@H](N)C(=O)O; Ac4c = NC1(C(=O)O)CCC1; Ms = CS(=O)(=O)*; Mpa = O=C(O)CCS

// recorded pIC50 for CCC[C@@H]1NC(=O)[C@H](Cc2c[nH]c3ncccc23)NC(=O)[C@H]([C@@H](C)O)NC(=O)[C@@H]2CCCN2C(=O)[C@H](Cc2ccc(O)cc2)NC(=O)[C@H](C(C)(C)C)NC(=O)[C@@H](NC(C)=O)CCCC(=O)NCCCC[C@@H](C(N)=O)NC(=O)[C@H]([C@@H](C)O)NC(=O)[C@H](CCC)NC(=O)[C@@H]2Cc3ccc(OC(C)=O)cc3CN2C(=O)[C@H](C)NC1=O [Compound 074] (Ac-[Aad][Tle]YPT[Trp(7-aza)][Nva]A[X6][Nva]TK-NH2; lactam 1-12) : 6.00 to 7.00

// recorded pIC50 for CC(C)[C@]1(C)NC(=O)[C@H](Cc2ccc(O)cc2)NC(=O)[C@H](C)NC(=O)C2(CCC2)NC(=O)[C@H](Cc2c[nH]c3ncccc23)NC(=O)[C@H]([C@@H](C)O)NC(=O)[C@@H]2CCCN2C(=O)[C@H](Cc2ccc(O)cc2)NC(=O)[C@H](C(C)(C)C)NC(=O)[C@@H](NS(C)(=O)=O)CSCc2cccc(c2)CSC[C@H](C(N)=O)NC(=O)[C@H]([C@@H](C)O)NC1=O [Compound 192] (Ms-C[Tle]YPT[Trp(7-aza)][Ac4c]AY[αMeV]T[dC]-NH2; linker 1-12 via mXylylene) : 7.00 to 9.00

// recorded pIC50 for CCC[C@@H]1NC(=O)[C@H](Cc2c[nH]c3ncccc23)NC(=O)[C@H]([C@@H](C)O)NC(=O)[C@@H](Cc2cnc[nH]2)NC(=O)[C@H](Cc2ccc(O)cc2)NC(=O)[C@H](C(C)(C)C)NC(=O)CCSCc2cccc(c2)CSC[C@@H](C(N)=O)NC(=O)[C@H]([C@@H](C)O)NC(=O)[C@H](CCC)NC(=O)[C@H](Cc2ccc(O)cc2)NC(=O)[C@H](CCC(=O)O)NC1=O [Compound 204] ([Mpa][Tle]Y[dH]T[Trp(7-aza)][Nva]EY[Nva]TC-NH2; linker 1-12 via mXylylene) : 4.68 to 6.00
